Tested on: glucose-6-phosphate dehydrogenase [Leuconostoc mesenteroides]
Assay: bacterial G6PDH enzyme inhibition, coupled readout – biochemical, Leuconostoc mesenteroides enzyme, counter-screen for G6PDH-coupled screening assays (AID 1020)
Settings: Purified L. mesenteroides G6PDH, diaphorase/resazurin coupled fluorescence, 45 min; at 5 µM; active compounds read high
Hit rate of the full screen: of about 200,000 compounds, about 240 (0.12%) were called active. Many of the other results were omitted from the sample, so actives are more common in it than they were.
The following molecules are listed with their measured inhibition values.
Express the result in % but write the number alone.

>>> measured_value("CC1(C)C2CC=C(/C=N/NC(=O)c3ccc(Cl)cc3)C1C2 (configuration not stated)")
6.3

Recorded inhibition for OCCNCCOc1ccc(Cl)c(Cl)c1 , please? 3.7

Recorded inhibition for COc1ccc(-n2cc(CN(C)Cc3n[nH]c(=O)[nH]3)c(-c3cccc(F)c3)n2)cc1 , please? 19.5

Recorded inhibition for CC(/C=C/c1ccccc1)=N\NC(=O)C1CC1(C)c1ccccc1 (configuration not stated) , please? 5.3

Recorded inhibition for Cc1nc2ccccc2nc(C)c1=NOCc1ccc(Cl)cc1Cl , please? -13.7

Recorded inhibition for CCCCS(=O)c1snnc1C (configuration not stated) , please? 7.1

Recorded inhibition for CCN(CC)C(=O)Cn1cc(S(=O)(=O)CC(=O)NCc2ccc3c(c2)OCO3)c2ccccc21 , please? 2.6

Recorded inhibition for COc1cccc(CC(=O)N2CCCC(CCC(=O)N3CCN(c4ccccn4)CC3)C2)c1 (configuration not stated) , please? 2.5

Recorded inhibition for O=C(/C=C/c1ccc(Cl)c([N+](=O)[O-])c1)c1cccnc1 , please? 0.4

Recorded inhibition for CCC(C)(C)c1ccc(OCC(=O)N(C)C)c(C(C)(C)CC)c1 , please? -0.6
